Cited source: PubChem BioAssay (NCI)

- Test system: A549/ATCC NSCLC
- Assay Method Text: NCI-60 one-dose screen, 48 h
- Test Context: 10 µM unless noted
About 83,000 compounds went through this panel and 20% of them were active in at least one assay; those are over-represented in the sample as a whole. The source made the active and inactive calls. The calls were made as follows: active = growth percent below 10; inactive = the rest.
Valid outcomes are listed here; reply with one: y for active, n for inactive

Fill in: this test's call for O=C(N/N=C/c1ccncc1)c1ccc(C(F)(F)F)nc1Nc1cccc(C(F)(F)F)c1 is ___
n

Next up: CC/C=C\C[C@H](O)C/C=C1/C(=O)C=C[C@@H]1C/C=C\CCCC(=O)OC
y

Next up: CCN1C(=O)N(CC)C2Nn3c(s/c(=C\c4ccc(Cl)cc4Cl)c3=O)=NC21 (configuration not stated)
n

Next up: Cc1ccc(C(=O)COc2cccc(/C=C3\Oc4ccccc4C3=O)c2)cc1
n

Next up: COc1cccc(-c2nn(-c3ccccc3)cc2-c2ccnc(NCCNC(=O)Nc3ccccc3)c2)c1
n

Next up: CCN(CC)c1ccc2nc3c4ccccc4c(=NC(=O)c4ccccc4-c4c5ccc(N(CC)CC)cc5[o+]c5cc(N(CC)CC)ccc45)cc-3oc2c1
n

Next up: COc1cccc(-c2nn(-c3ccccc3)cc2-c2ccnc(NCCNC(=O)c3ccccc3)c2)c1
n

Next up: N#Cc1c2c(nn(-c3ccccc3)c1=O)C(O)=C([N+](=O)[O-])C(c1ccccc1)C2 (configuration not stated)
n

Next up: Cc1ccc(-c2cc(-c3ccccc3C)[nH]c(=O)c2C#N)s1
n

Next up: C#Cc1cccc(NC(=O)c2ccc(NC(=O)CCl)cc2)c1
n

Next up: O=C(/C=C/c1ccc(Cl)nc1)c1ccc(Cl)cc1Cl
n

Next up: CC1=NOC(=O)/C1=C\c1ccc(O)cc1
n

Next up: O=C(COc1ccc(/C=C2\Oc3ccccc3C2=O)cc1)Nc1nc2ccccc2s1
n

Next up: CCc1ccccc1-n1c(-c2ccc(Cl)cc2)cc(-c2ccc(Cl)cc2)c(C#N)c1=O
n

Next up: O=C1/C(=C/c2ccc(F)cc2)C=C(c2ccccc2)N1CCc1ccccc1
n

Next up: O=S(=O)(NCCCNc1cc(-c2c(-c3cccc(O)c3)nc3sccn23)ccn1)c1cccc(Cl)c1
n

Next up: O=C(Nc1cccc(Oc2nnc(Cl)c3ccccc23)c1)Nc1ccc(Cl)c(C(F)(F)F)c1
y

====

- Test system: OVCAR-8 ovarian
- Assay Method Text: NCI-60 one-dose screen, 48 h (100 = growth as untreated, 0 = no growth, -100 = all killed)
- Test Context: 10 µM unless noted
Compounds without any hit were thinned out: in the full panel of roughly 83,000, 20% have a hit. The source made the active and inactive calls. How the source made its calls: active means growth percent below 10; inactive means the rest.
Observation Type: growth

Which value of growth has been reported for O=C(c1ccc(Nc2nccc(NCCCCNc3ccnc4cc(Cl)ccc34)n2)cc1)N1CCCCC1 in the records?
23% (inactive)

Next up: N#CC1=C(/N=C/c2ccccc2)Oc2c(ccc3ccccc23)C1c1ccccc1 (stereo unspecified)
12.5% (inactive)

Next up: CCc1ccccc1-n1c(-c2ccc(Cl)cc2)cc(-c2ccc(OC)cc2)c(C#N)c1=O
102% (inactive)

Next up: COc1ccc(OC)c(-c2c(C#N)c(-c3ccc(Cl)cc3)nc3c2c(-c2ccccc2)nn3-c2ccccc2)c1
101% (inactive)

Next up: Cc1ccc(C(=O)COc2cccc(/C=C3\Oc4ccccc4C3=O)c2)cc1
106% (inactive)

Next up: C[C@@]1(CCC#N)[C@H]2CC[C@@H]3[C@H]4[C@H](C(=O)/C=C/c5cccnc5)CC[C@]4(C#N)CC[C@@]3(C)[C@]2(C)CC[C@H]1C(=O)/C=C/c1cccnc1
34.7% (inactive)
